# Tested on: NCI/ADR-RES ovarian
# ASSAY_METHOD_TEXT: NCI tumour cell line growth inhibition, 48 h
compounds and their reported TGI

Example results:
{"columns": ["COMPOUND", "TGI"],
 "data": [
  ["CC[C@@H]1CN(C)[C@H]2Cc3c([nH]c4ccccc34)C(=O)C[C@H]1C2C(=O)OC (stereo partly specified)", "> 100 µM"],
  ["N#Cc1c(-c2ccc(F)cc2)nc(N/N=C/c2c[nH]c3ccccc23)nc1N1CCOCC1", "> 100 µM"],
  ["O=C1C=C(c2ccccc2)O/C1=C/C(=O)c1ccc(Cl)cc1", "50 µM"],
  ["CC/C(=C(/c1ccc(O)cc1)c1ccc(OCCNC)cc1)c1ccccc1", "5.85 µM"]
]}

(Q) Write down the reported TGI of CN1CCN(C)C12C=c1ccccc1=CC21CC1 , test system: NCI/ADR-RES ovarian.
(A) > 100 µM

(Q) Recall the recorded TGI for CCOc1cc2c(Cl)ncnc2c(OCC)c1OCC with NCI/ADR-RES ovarian and state it.
(A) > 64.3 µM
